- Test system: DIFI
- ASSAY: MTS proliferation assay
- Assay type: cell-based, human
- TEST CONTEXT: Homo sapiens, DiFi, 72 h
ASSAY METRIC: pIC50
Would you please state pIC50, meaning minus log10 of the concentration in mol/L, as a bare number?

// query For the compound C[C@@]1(C(=O)Nc2ccc(F)nc2)CCCN1c1nc(Nc2cc(C3CC3)n[nH]2)c2cccn2n1 , give its reported pIC50.
// result 7.92

---

- Test system: SW948
- ASSAY: MTS proliferation assay
- Assay type: cell-based, human
- TEST CONTEXT: Homo sapiens, SW948, 72 h
ASSAY METRIC: pIC50
pIC50 field: float, defined as -log10 of concentration (mol/L).

// query Output reported pIC50 of the molecule C[C@@]1(C(=O)Nc2ccc(F)nc2)CCCN1c1nc(Nc2cc(C3CC3)n[nH]2)c2cccn2n1 on SW948.
// result 7.74
